assay-text: Aqueous solubility in different cyclodextrin solutions (excess compound, shaken 24 hours, HPLC)
Assay type: physicochemical
assay-context: aqueous cyclodextrin solution, aqueous with cosolvent or surfactant or cyclodextrin, thermodynamic from solid, HPGCD 150 mg/ml, room temperature, read-out: Solubility in CD's solution (concentration of compound)
measurement-name: solubility at 24 h (µg/mL)

- compound: "Cc1cccc(COc2ccc(Sc3ccoc3C3NC(=O)NC3=O)cc2)c1 (stereo not shown)"
  measurement-name: "solubility at 24 h"
  numeric-result: 4

====

assay-text: Aqueous solubility in different cyclodextrin solutions (excess compound, shaken 24 hours, HPLC)
Type: physicochemical
assay-context: aqueous cyclodextrin solution, aqueous with cosolvent or surfactant or cyclodextrin, thermodynamic from solid, SBEBCD 200 mg/ml, room temperature, read-out: Solubility in CD's solution (concentration of compound)
measurement-name: solubility at 24 h (µg/mL)

- compound: "Cc1cccc(COc2ccc(Sc3ccoc3C3NC(=O)NC3=O)cc2)c1 (stereo not shown)"
  measurement-name: "solubility at 24 h"
  units-label: "µg/mL"
  numeric-result: 761
